biological target: human TLR9 (Homo sapiens, UniProt Q9NR96); construct: HA; host or cells: 293XL-hTLR9-HA (HEK293); test: HEK-TLR9 NF-κB-luciferase reporter, ODN2006 stimulation; type: cell-based; conditions: ASO 500 nM; relative to ODN2006 only, given as fraction
Sequence (Q9NR96 26-1032): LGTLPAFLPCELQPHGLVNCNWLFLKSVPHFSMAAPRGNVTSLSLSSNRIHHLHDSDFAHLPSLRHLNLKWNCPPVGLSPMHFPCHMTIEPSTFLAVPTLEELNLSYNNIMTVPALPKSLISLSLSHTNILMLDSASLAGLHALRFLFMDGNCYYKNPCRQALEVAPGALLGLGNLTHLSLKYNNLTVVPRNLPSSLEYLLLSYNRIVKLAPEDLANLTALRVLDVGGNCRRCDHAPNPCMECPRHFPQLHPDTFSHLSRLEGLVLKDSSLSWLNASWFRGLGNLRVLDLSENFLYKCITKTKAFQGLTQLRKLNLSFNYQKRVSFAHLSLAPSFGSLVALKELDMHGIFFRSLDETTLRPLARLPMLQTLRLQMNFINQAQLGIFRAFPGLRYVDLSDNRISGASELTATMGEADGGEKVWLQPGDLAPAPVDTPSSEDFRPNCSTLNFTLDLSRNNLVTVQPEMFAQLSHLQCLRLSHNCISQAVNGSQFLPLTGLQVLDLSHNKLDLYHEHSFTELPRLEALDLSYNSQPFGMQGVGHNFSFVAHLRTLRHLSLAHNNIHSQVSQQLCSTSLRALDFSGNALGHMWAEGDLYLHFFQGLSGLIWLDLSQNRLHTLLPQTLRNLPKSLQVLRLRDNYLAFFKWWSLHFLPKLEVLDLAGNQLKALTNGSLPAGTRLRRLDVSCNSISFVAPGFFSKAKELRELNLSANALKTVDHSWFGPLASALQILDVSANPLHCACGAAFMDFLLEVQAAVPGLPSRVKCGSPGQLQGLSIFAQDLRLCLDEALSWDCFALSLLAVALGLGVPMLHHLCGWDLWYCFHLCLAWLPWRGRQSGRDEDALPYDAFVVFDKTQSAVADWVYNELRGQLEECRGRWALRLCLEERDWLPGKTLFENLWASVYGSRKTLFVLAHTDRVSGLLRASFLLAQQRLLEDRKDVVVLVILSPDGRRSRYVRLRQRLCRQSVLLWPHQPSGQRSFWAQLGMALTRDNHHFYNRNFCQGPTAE
Outcome label depends on TLR9 500 nM (averaged NF-κB-Luciferase level relative to ODN2006 condition) relative to 0.5: at/above gives Yes, below gives No.

# bool: TLR9 500 nM (averaged NF-κB-Luciferase level relative to ODN2006 condition) of TCCGCCCAAAGGGAAC (antisense; LNA-modified, pattern not given here) [HPRT LNA-1027 KL] >= 0.5
Yes

# bool: TLR9 500 nM (averaged NF-κB-Luciferase level relative to ODN2006 condition) of CTTGAAGCATCGTATC (antisense; LNA-modified, pattern not given here) [CTNN2B-3648 LNA KL] >= 0.5
No

# bool: TLR9 500 nM (averaged NF-κB-Luciferase level relative to ODN2006 condition) of AGTGTTGAGATACTCG (antisense; LNA-modified, pattern not given here) [EGFR-3652 LNA KL] >= 0.5
Yes

# bool: TLR9 500 nM (averaged NF-κB-Luciferase level relative to ODN2006 condition) of AACACTTCGTGGGGTC (antisense; LNA-modified, pattern not given here) [HPRT LNA-666 V1] >= 0.5
No

# bool: TLR9 500 nM (averaged NF-κB-Luciferase level relative to ODN2006 condition) of TCTTCATCGGCCCTGC (antisense; LNA-modified, pattern not given here) [CAMSAP1-2112 LNA V1] >= 0.5
No

# bool: TLR9 500 nM (averaged NF-κB-Luciferase level relative to ODN2006 condition) of GCCATGCTGGCTCGGA (antisense; LNA-modified, pattern not given here) [CAMSAP1-2584 LNA V1] >= 0.5
No

====

target: TLR3 (Homo sapiens, UniProt O15455); assay: HEK-TLR3 NF-κB-luciferase reporter, poly(I:C) stimulation; assay type: cell-based; design: host or cells: HEK-Blue hTLR3 (HEK293); conditions: 30-50 min before 0.5 μg/ml pIC overnight, read-out: IC50 (polyI:C sensing by TLR3)
Sequence (O15455 24-904): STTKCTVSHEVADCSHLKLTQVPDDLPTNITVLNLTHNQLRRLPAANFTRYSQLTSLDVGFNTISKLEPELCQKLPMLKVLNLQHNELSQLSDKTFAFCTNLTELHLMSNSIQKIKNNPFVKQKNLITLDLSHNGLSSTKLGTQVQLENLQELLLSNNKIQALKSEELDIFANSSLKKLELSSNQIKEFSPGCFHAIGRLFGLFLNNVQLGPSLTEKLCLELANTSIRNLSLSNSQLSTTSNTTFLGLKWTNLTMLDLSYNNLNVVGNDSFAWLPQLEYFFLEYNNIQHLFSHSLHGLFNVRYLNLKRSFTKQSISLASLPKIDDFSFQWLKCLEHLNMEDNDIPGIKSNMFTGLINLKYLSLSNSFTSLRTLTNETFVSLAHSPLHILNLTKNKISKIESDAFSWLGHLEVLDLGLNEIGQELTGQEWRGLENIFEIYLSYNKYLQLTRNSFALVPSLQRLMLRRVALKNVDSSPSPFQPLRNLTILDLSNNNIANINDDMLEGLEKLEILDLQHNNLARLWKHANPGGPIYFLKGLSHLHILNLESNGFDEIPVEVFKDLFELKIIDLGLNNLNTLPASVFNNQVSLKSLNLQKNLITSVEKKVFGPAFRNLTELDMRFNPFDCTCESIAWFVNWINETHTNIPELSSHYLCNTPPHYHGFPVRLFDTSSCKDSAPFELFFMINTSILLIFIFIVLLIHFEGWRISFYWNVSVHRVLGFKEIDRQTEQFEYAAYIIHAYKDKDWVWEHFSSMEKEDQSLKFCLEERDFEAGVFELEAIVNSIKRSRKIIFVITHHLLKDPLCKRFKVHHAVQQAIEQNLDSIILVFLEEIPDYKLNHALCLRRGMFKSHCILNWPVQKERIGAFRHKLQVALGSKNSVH
In the oligonucleotide strings, read from the 5' end, every base follows the letter of its sugar. An asterisk marks phosphorothioate; unmarked linkages are phosphodiester. Other units and linkages are bracketed, terminal groups are in braces. A string of capitals states the bases alone. d = 2'-deoxy (DNA); m = 2'-O-methyl
REPORTED PROPERTY: pIC50
pIC50 here: minus log base 10 of the concentration, concentration in moles per litre.

I'd like to know its pIC50. The substance in question is mG*mC*mG*mG*mU*A*T*C*C*A*T*G*T*C*C*mC*mA*mG*mG*mC (mG*mC*mG*mG*mU*dA*dT*dC*dC*dA*dT*dG*dT*dC*dC*mC*mA*mG*mG*mC; antisense) [C2-Mut1]
7.21

====

biological target: human TLR9 (Homo sapiens); construct: HA; host or cells: 293XL-hTLR9-HA (HEK293); experiment: HEK-TLR9 NF-κB-luciferase reporter, ODN2006 stimulation; assay type: cell-based; details: MOE-modified ASO at 100 nM; averaged NF-κB-Luciferase relative to ODN2006 condition
Threshold 0.6: TLR9 100 nM strictly smaller gives 1, otherwise 0.

Is 0.6 strictly greater than the sequence's reported TLR9 100 nM? sequence: GATGCTCCTCGGTCTCCCTT (antisense; 2'-MOE modified, pattern not given here) [CAMSAP1-1850 MOE]
0

Is 0.6 strictly greater than the sequence's reported TLR9 100 nM? sequence: GCGACTATACGCGCAATATG (antisense; 2'-MOE modified, pattern not given here) [NC5 2′MOE]
1

Is 0.6 strictly greater than the sequence's reported TLR9 100 nM? sequence: ATGTGATGGCCTCCCATCTC (antisense; 2'-MOE modified, pattern not given here) [HPRT-333 MOE]
0

Is 0.6 strictly greater than the sequence's reported TLR9 100 nM? sequence: ATGTCCCGCCACTGGATGCT (antisense; 2'-MOE modified, pattern not given here) [EGFR-727 MOE]
0

Is 0.6 strictly greater than the sequence's reported TLR9 100 nM? sequence: ACACTTCGTGGGGTCCTTTT (antisense; 2'-MOE modified, pattern not given here) [HPRT-663 MOE]
1

Is 0.6 strictly greater than the sequence's reported TLR9 100 nM? sequence: GGGTATCGAAAGAGTCTGGA (antisense; 2'-MOE modified, pattern not given here) [EGFR-3908 MOE]
1

Where do the numbers come from? From patent US20240384268A1.
